System: AAG
Assay: Calculation of IC50 in presence of AAG, free drug concentration and efficacy from ITC Ka
Design: species or system human
Conditions: read-out: Predicted IC50 @ 1 mg/mL AAG; calculated from Ka and IC50 without AAG
Reported pIC50 values for the following compounds.
Scale explanation: pIC50 corresponds to minus log10 of a concentration expressed in moles per litre.

The examples below pair each entry with its known result.
compound: COc1ccc(S(=O)(=O)N(CC(C)C)C[C@@H](O)[C@H](Cc2ccccc2)NC(=O)OC2CO[C@H]3OCC[C@@H]23)cc1 (stereo partly drawn)
pIC50: 8.08
--
compound: CC(C)CN(C[C@@H](O)[C@H](Cc1ccccc1)NC(=O)O[C@H]1CO[C@H]2OCC[C@H]21)S(=O)(=O)c1ccc2c(c1)OCO2
pIC50: 7.64

Okay, next one:
(Q) Please supply the value of reported pIC50 for the item CC(C)CN(C[C@@H](O)[C@H](Cc1ccccc1)NC(=O)OC1CO[C@H]2OCC[C@@H]12)S(=O)(=O)c1ccc(N)cc1 (stereo partly drawn)
(A) 7.13

###

System: AAG (human α1-acid glycoprotein)
Assay: Isothermal titration calorimetry (ITC) of PI binding to AAG
Settings: binding to AAG, 37° C., 20 mM phosphate buffer, pH 7.4; average of duplicate experiments
Recorded Ka values for a group of compounds are listed next.

Consider the following illustrative entries.
chemical_structure: Cc1c(O)cccc1C(=O)N[C@@H](CSc1ccccc1)[C@H](O)CN1C[C@H]2CCCC[C@H]2C[C@H]1C(=O)NC(C)(C)C
test_target: AAG (human α1-acid glycoprotein)
Ka: 2.35 ± 0.42 10^6M^−1

chemical_structure: Cc1cccc(C)c1OCC(=O)N[C@@H](Cc1ccccc1)[C@@H](O)C[C@H](Cc1ccccc1)NC(=O)[C@H](C(C)C)N1CCCNC1=O
test_target: AAG (human α1-acid glycoprotein)
Ka: 5.77 ± 0.72 10^6M^−1

chemical_structure: CC(C)(C)NC(=O)[C@@H]1C[C@@H]2CCCC[C@@H]2CN1C[C@@H](O)[C@H](Cc1ccccc1)NC(=O)[C@H](CC(N)=O)NC(=O)c1ccc2ccccc2n1
test_target: AAG (human α1-acid glycoprotein)
Ka: 0.34 ± 0.12 10^6M^−1

chemical_structure: CC(C)CN(C[C@@H](O)[C@H](Cc1ccccc1)NC(=O)[C@H](CC(N)=O)NC(=O)c1ccc2ccccc2n1)C(=O)NC(C)(C)C
test_target: AAG (human α1-acid glycoprotein)
Ka: 2.38 ± 0.60 10^6M^−1

# ---- query compound ----
(Q) Using the record for CC(C)c1nc(CN(C)C(=O)N[C@H](C(=O)N[C@@H](Cc2ccccc2)C[C@H](O)[C@H](Cc2ccccc2)NC(=O)OCc2cncs2)C(C)C)cs1 , state its measured Ka.
(A) 1.55 ± 0.49 10^6M^−1

###

Test system: HIV
Assay: Antiviral assay in the absence of AAG (Table 2)
Format: cell-based
Conditions: Human immunodeficiency virus 1
test_readout: pIC50
The read-out pIC50 is expressed as -log10 of concentration in moles per litre.

(Q) Let me know recorded pIC50 for CC(C)CN(C[C@@H](O)[C@H](Cc1ccccc1)NC(=O)OC1CO[C@H]2OCC[C@@H]12)S(=O)(=O)c1ccc(N)cc1 (stereo partly shown) , thanks.
(A) 8.52
